Tested on: UACC-62 melanoma
experimental details: NCI tumour cell line growth inhibition, 48 h
In this section we review reported TGI values for a set of compounds.
result type: TGI

compound | assay value
N#CC1C(C#N)C2(c3ccccc3)C(c3ccccc3)=NN(c3ccccc3)CC12 (centres undefined) | > 100 µM
Oc1ccc(-c2nc(-c3cccnc3)c(-c3ccc(F)cc3)[nH]2)cc1 | 29.6 µM
COc1ccc(/C=C2\CCC(C)C3=C2NC(=S)NC3c2ccc(OC)c(OC)c2)cc1OC (centres undefined) | > 31.6 µM
O=C(/C=C/C12c3ccccc3C(c3ccccc31)C1C(=O)NC(=O)C12)c1ccncc1 (centres undefined) | 3.88 µM
N#CCCN(CCC#N)c1ccc(/C=C2\N=C(c3cc([N+](=O)[O-])ccc3Cl)OC2=O)cc1 | > 100 µM
COc1ccc2c(C3=C(c4cn(C)c5ccccc45)C(=O)NC3=O)cn(C)c2c1 | > 25 µM
O=C(O)CN(CC(=O)O)C1CCCCC1N(CC(=O)O)CC(=O)NCCN=C=S (centres undefined) | > 100 µM
N.N.N.N.O=[N+]([O-])[O-].[Co+3].[N-]=[N+]=[N-].[N-]=[N+]=[N-] | > 100 µM
CCC[C@@H](O)C[C@@H]1CCC[C@H](C[C@@H](O)CC)N1C | > 100 µM

----------
Test system: MDA-MB-435
Possible outcomes: YES for active, NO for inactive

compound | discrete label
OCc1ccc(N2CCC2c2ccc(F)cc2)cc1Cl (stereo unspecified) | NO
O=C1C(Cl)=C(Nc2cccc(Cl)c2)C(=O)N1Cc1ccc(Cl)cc1Cl | NO
CSc1nc2c(c(=O)[nH]1)N=C1c3ccccc3C(=O)C1C(c1ccccc1)N2 (stereo unspecified) | NO
O=C(/C=C/C12c3ccccc3C(c3ccccc31)C1C(=O)NC(=O)C12)c1ccncc1 (stereo unspecified) | NO
CC[C@@]1(O)C[C@H](OC2CC(N(C)C)C(O)C(C)O2)c2c(O)c3c(c(O)c2[C@H]1OC1CC(N(C)C)C(O)C(C)O1)C(=O)c1cccc(O)c1C3=O (stereo partly specified) | YES
Cc1ccc2c(=O)cc(-c3ccc(F)cc3)[nH]c2n1 | NO
Cn1c2ccccc2c2c(Nc3ccccc3)c3ccccc3nc21 | NO
CCCCCN(CCCCC)CC(O)c1cc(C)c2ccc3cc(C(C)C)ccc3c2c1 (stereo unspecified) | NO
COc1ccc(C(=O)Cn2c(C(=O)c3ccccc3)nc(-c3ccc(OC)cc3)c2-c2ccc(OC)cc2)cc1 | NO
NC(=O)c1cccc2cn(-c3ccc([C@@H]4CCCNC4)cc3)nc12 | NO
COc1cc(-c2nn(-c3ccc(NC(=O)c4ccc(Cl)c(C(F)(F)F)c4)cc3)cc2-c2ccncc2)ccc1Cl | NO

----------
Test system: SK-OV-3 ovarian
experimental details: NCI tumour cell line growth inhibition, 48 h
result type: TGI

compound | result type | assay value
O=S1(=O)c2ccccc2NC(c2ccc3ccccc3c2)CC1c1ccccc1F (stereo not given) | TGI | > 100 µM
CC(=O)NC1=C(NCCC(C)C)C(=O)c2ccccc2C1=O | TGI | > 50 µM
Brc1ccc(N=c2nc3ccccn3n3nc(-c4ccccc4)cc23)cc1 | TGI | > 100 µM
CCN(CC)CCC(=O)Nc1ccc2c(c1)C(=O)c1ccc(NC(=O)CCN(CC)CC)cc1C2=O | TGI | 21.7 µM
Cc1cn(C2CC(N(O)C(N)=O)C(CO)O2)c(=O)[nH]c1=O (stereo not given) | TGI | > 100 µM

----------
System: MOLT-4 leukemia
experimental details: NCI tumour cell line growth inhibition, 48 h; in the data active = GI50 below about 0.43 µM; inactive = the rest
Possible outcomes: label 1 (active), label 0 (inactive)

molecule | assay target | discrete label
COc1ccc(C(=O)Cn2c(C(=O)c3ccccc3)nc(-c3ccc(OC)cc3)c2-c2ccc(OC)cc2)cc1 | MOLT-4 leukemia | label 0
CCCNC1=C2CC(C)CC(OC)[C@@H](O)[C@H](C)/C=C(\C)C(OC(N)=O)C(OC)/C=C\C=C(/C)C(=O)NC(=CC1=O)C2=O (stereo partly drawn) | MOLT-4 leukemia | label 0
COC1=CC(c2ccc[nH]2)=N/C1=C\c1[nH]c(C)c(C(=O)OC(C)C)c1C | MOLT-4 leukemia | label 1
COc1ccc(-c2nc3sccn3c2/C(N)=N/C(=N)N)cc1OC | MOLT-4 leukemia | label 0
CSc1nc2c(c(=O)[nH]1)N=C1c3ccccc3C(=O)C1C(c1ccccc1)N2 (stereo not drawn) | MOLT-4 leukemia | label 0
Clc1ccc2c(NCCCCNc3nc(N4CCCCC4)nc4ccccc34)ccnc2c1 | MOLT-4 leukemia | label 0
CC1(C)CCc2c(c3c(c4c(=O)c(O)c(-c5ccc(O)cc5)oc24)OC(C)(C)CC3)O1 | MOLT-4 leukemia | label 0
C#Cc1ccc(-n2c(/C=C/c3ccc(C(F)(F)F)cc3)nc3ncccc3c2=O)cc1 | MOLT-4 leukemia | label 0

----------
Test system: DU-145 prostate
experimental details: NCI tumour cell line growth inhibition, 48 h; in the data active means GI50 below about 0.43 µM; inactive means the rest
Possible outcomes: YES (active), NO (inactive)

compound | discrete label
CC/C=C\CCC/C=C1/C(=O)C=C[C@@H]1C/C=C\CCCC(=O)OC | NO
NC(=O)c1cccc2cn(-c3ccc([C@@H]4CCCNC4)cc3)nc12 | NO
COc1ccc2c(c1)/C(=C/c1c(C)nc3sc(C)nn13)C(=O)N2 | NO
COC1=CC(c2ccc[nH]2)=N/C1=C\c1[nH]c(C)c(C(=O)OC(C)C)c1C | YES
Clc1ccc2c(NCCCCNc3nc(N4CCCCC4)nc4ccccc34)ccnc2c1 | NO
C#Cc1ccc(-n2c(/C=C/c3ccc(C(F)(F)F)cc3)nc3ncccc3c2=O)cc1 | NO
CO[C@H](C(=O)[C@@H](O)[C@@H](C)O)[C@@H]1Cc2cc3cc(O[C@H]4C[C@@H](O[C@H]5C[C@@H](O)[C@H](O)C(C)O5)[C@H](O)C(C)O4)c(C)c(O)c3c(O)c2C(=O)[C@H]1O[C@H]1C[C@@H](O[C@H]2C[C@@H](O[C@H]3C[C@](C)(O)C(=O)C(C)O3)[C@@H](O)C(C)O2)[C@H](O)C(C)O1 (stereo partly drawn) | YES
Cn1c2ccccc2c2c(Nc3ccccc3)c3ccccc3nc21 | NO

----------
Tested on: HL-60(TB) leukemia
experimental details: NCI tumour cell line growth inhibition, 48 h; in the data active = GI50 below about 0.43 µM; inactive = the rest
Possible outcomes: active, inactive

compound | discrete label
C=C(CN1CCN(c2ccc(Cl)cc2F)CC1)c1ccc(C(=O)Nc2ccccc2N)cc1 | inactive
C#Cc1ccc(-n2c(/C=C/c3ccc(C(F)(F)F)cc3)nc3ncccc3c2=O)cc1 | inactive
Clc1ccc2c(NCCCCNc3nc(N4CCCCC4)nc4ccccc34)ccnc2c1 | inactive
COc1ccc2c(C3=C(c4cn(C)c5ccccc45)C(=O)NC3=O)cn(C)c2c1 | active
COC(=O)[C@@H]1[C@H](O)[C@H](C)[C@H](O)[C@@](C)(O)/C=C\C=C(C)C(=O)Nc2c(C)c(OC(C)=O)c3c(c2O)C(=O)C(C)=C2OCOC(=C23)C(C)=C[C@@](C)(O)[C@H](O)[C@@H](C)[C@H]1OC(C)=O | inactive
COC1=CC(c2ccc[nH]2)=N/C1=C\c1[nH]c(C)c(C(=O)OC(C)C)c1C | active
NC(Cc1c[nH]c2c(O)cccc12)C(=O)O (stereo unspecified) | inactive
CC1=C(C(=O)Nc2ccc(Cl)c(Cl)c2)C(c2cccc(Oc3ccccc3)c2)NC(=S)N1 (stereo unspecified) | inactive
NC(=O)c1sc(-n2cnc3ccccc32)cc1OCc1ccccc1Br | inactive
OCc1ccc(N2CCC2c2ccc(F)cc2)cc1Cl (stereo unspecified) | inactive
O=C1/C(=C/c2cccc([N+](=O)[O-])c2)COc2ccc(O)cc21 | inactive
CCCCOC(=O)C1OC(O[C@H]2CCC3(C)C(CCC4(C)C3CC=C3C5CC(C)(C)CCC5(C(=O)O)CC[C@]34C)C2(C)C)C(OC2OC(CO)C(O)C(O)C2O)C(OC2OC(CO)C(O)C(O)C2O)C1O (stereo partly specified) | inactive
O=C(Nc1ccccc1OC(F)(F)F)Nc1n[nH]c2ccccc12 | inactive
Cc1cc(I)cc(CN(C)CCCCN2CCCCC2)c1O | inactive
CC[C@@]1(O)C[C@H](OC2CC(N(C)C)C(O)C(C)O2)c2c(O)c3c(c(O)c2[C@H]1OC1CC(N(C)C)C(O)C(C)O1)C(=O)c1cccc(O)c1C3=O (stereo partly specified) | active
CCCCCN(CCCCC)CC(O)c1cc(C)c2ccc3cc(C(C)C)ccc3c2c1 (stereo unspecified) | inactive

----------
Test system: BT-549 breast
experimental details: NCI tumour cell line growth inhibition, 48 h; in the data active means GI50 below about 0.43 µM; inactive means the rest
Possible outcomes: Y for active, N for inactive

molecule | discrete label
COC1=CC(c2ccc[nH]2)=N/C1=C\c1[nH]c(C)c(C(=O)OC(C)C)c1C | Y
COc1cc(-c2nn(-c3ccc(NC(=O)c4ccc(Cl)c(C(F)(F)F)c4)cc3)cc2-c2ccncc2)ccc1Cl | N
O=C(/C=C/C12c3ccccc3C(c3ccccc31)C1C(=O)NC(=O)C12)c1ccncc1 (stereo not given) | N
O=C(Nc1ccccc1OC(F)(F)F)Nc1n[nH]c2ccccc12 | N
Cn1c2ccccc2c2c(Nc3ccccc3)c3ccccc3nc21 | N
